Recorded PBM binding z-score values for a group of sequences are listed next.
# System: PPARg DBDmut:RXRa IVT, anti-PPARg (DBD mutation: PPARg1 K132A/R137A, NR concentration 270 nM, RXRa partner concentration 90 nM)
# Experiment Summary: PBM binding z-score (relative to random genomic background probes); higher = stronger binding; sequences stand for … in GC…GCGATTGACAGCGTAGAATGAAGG
Give your answer as a number; write no unit.

>>> test_result("TTACCAAGGTGAAGGTCGTTGCTCCCTCTGTAGA")
-0.269
>>> test_result("GTACCAAGGTGAATAGGTCGTGGATGAGTAGGCG")
0.27
>>> test_result("CGAACTAGGTCAAGGACAGGGAATCTCCGCACGC")
1.81

`AGATTGAGGTTAAGATCAGGGAAACAGAATACAT` yielded PBM binding z-score of 1.37

PBM binding z-score reported for this sequence `ATCGCAAGGTCGTGAGGTGAGTATACAGAAAGGC` : 0.877

The sequence `CCTCGGAGGACAACAGGAGGTAAGAGCTGCCAGA` showed PBM binding z-score equal to -1.15

Form: sequence = `AGTCAAAGTTCAGGACGAGGTAACGTAAAGCACG` ; PBM binding z-score = 0.129

Reported PBM binding z-score ( `CCTAGCAGGCCAATTTGGGTCACTCAAGGCTTGA` ) = -1.03

The sequence identified as `ATCTCTAGGTAAAAGTTCAGTGTATCCCGAGGAT` registered its PBM binding z-score at 1.69

PBM binding z-score reading for `TCTAGTTGGTCAAAAGTCACACACTCGAAATGCG` : 0.872

PBM binding z-score recorded for this sequence, `CCTTACGTGTCACTCCAGGTTATAGCATCGGAGT` , is 0.74

So for `CAAACTAGGTCACGATAGGTCAAAGTCGAATGAC` , the logged PBM binding z-score turned out to be 3.89

Reported PBM binding z-score of `AGAATGATGTTAAGATCAGGGAAACAGAATACAT` : -0.544

Record `CGAACGAGGGCATGAGTTGACAGCAAATGCCGAT` , field PBM binding z-score: -0.484

// field: PBM binding z-score; key: `GCCAGTTGGTCAGTAAAAGGTCACACACCGGTCG` ; value = 0.21
